test system: K4 kissing-loop RNA reporter; test: apparent KD of K4 kissing-loop reporter; higher = weaker reporter binding; conditions: Eterna round: R107; input ligand: arginine 13.2 mM;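 note: bound reporter read as fluorescence of individual clusters on recovered sequencing chips by microscopy, with normalized cluster intensities fitted with a binding model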
# key: entry, value: apparent KD of K4 kissing-loop reporter
experimental.readout: apparent KD of K4 kissing-loop reporter (µM)

[
  {
    "macromolecule.sequence": "AAUAAAAUCACGGCCGCCACUGAUGUUAAUAUUAGCAGUGAUGUUGCUAUGUCGUUUUUCUUUAACAGGACCGGGUGAAUAUUUA [#22 K4 Tryptophan B Exclusion]",
    "assay.system": "K4 kissing-loop RNA reporter",
    "experimental.readout": "apparent KD of K4 kissing-loop reporter",
    "value.observed": 0.15
  },
  {
    "macromolecule.sequence": "UGAUACCAGACUGAUACCAGCCACAGAGUCAAAGACUCUGAUAAAGGUACCAGUGAUGUUGGCCCUUGGCAGCAGUCUGGUAUCU [TheoBX 17 #SwitchBubble #StaticStem]",
    "assay.system": "K4 kissing-loop RNA reporter",
    "experimental.readout": "apparent KD of K4 kissing-loop reporter",
    "value.observed": 0.126
  },
  {
    "macromolecule.sequence": "AGAACUGUCUGGGAUACCAGCCGAGGAGUGAUGUUCCGGCUCGACGAAACGUCGAGCUACGGCCCUUGGCAGCUCAGACAGUUCA [#22 K4 Theophylline B Same State]",
    "assay.system": "K4 kissing-loop RNA reporter",
    "experimental.readout": "apparent KD of K4 kissing-loop reporter",
    "value.observed": 0.639
  }
]
